// reported T/C per item
Tested on: Swiss mice, Sarcoma 180 sc, mean tumor weight T/C
protocol.notes: NCI In Vivo Anticancer Drug Screen. Data for tumor model Sarcoma 180 (subcutaneous) in Swiss mice
experimental.parameters: endpoint: mean tumor weight; dose: 200.0 mg/kg/injection; schedule: Q01DX007 (ip); vehicle: saline; higher = larger tumour

Example entries begin here.
> print(dat)
                                   molecule                         target.under.test            result
1  Oc1cc(O)c2c(c1)O[C@H](c1ccc(O)c(O)c1)[C@@H](O)C2  Swiss mice, Sarcoma 180 sc, mean tumor weight T/C   87 % of control
2  COC1C(OC(N)=O)C(O)C(Oc2ccc3c(O)c(NC(=O)c4ccc(O)c(CC=C(C)C)c4)c(=O)oc3c2C)OC1(C)C (stereo not given)  Swiss mice, Sarcoma 180 sc, mean tumor weight T/C  102 % of control
3     CNC(C)C(O)c1ccccc1 (stereo not given)  Swiss mice, Sarcoma 180 sc, mean tumor weight T/C   60 % of control
4  Cc1cc(N(CCCl)CCCl)ccc1C=Nc1ccccc1-c1ccccc1  Swiss mice, Sarcoma 180 sc, mean tumor weight T/C   73 % of control

Please find the next molecule below.
Would you please give the reported T/C of NC1(C(=O)O)CCCC1 with Swiss mice, Sarcoma 180 sc, mean tumor weight T/C?
22 % of control

* * *

System: Swiss mice, Sarcoma 180 sc, mean tumor weight T/C
protocol.notes: NCI In Vivo Anticancer Drug Screen. Data for tumor model Sarcoma 180 (subcutaneous) in Swiss mice
experimental.parameters: endpoint: mean tumor weight; dose: 500.0 mg/kg/injection; schedule: Q01DX007 (ip); vehicle: saline; higher = larger tumour
// reported T/C per item

Example entries begin here.
> print(dat)
                                   compound            result
1                              C=CN1CCCC1=O    9 % of control
2    COc1ccc(-c2cc(=O)c3c(O)cc(OC)cc3o2)cc1   81 % of control
3  C[N+]1(CCC[N+]2(C)C[C@@H]3[C@H](C2)[C@@H]2C=C[C@H]3C2)CCOCC1 (some centres undefined)  111 % of control
4                             OCCOCC(F)(F)F   63 % of control
5  Nc1c(Br)cc2c(c1Br)Cc1cc([N+](=O)[O-])ccc1-2   54 % of control

Quick one: give measured T/C for CC(=O)Nc1cc2c(cc1[N+](=O)[O-])-c1ccccc1C2O (centres undefined)
93 % of control

Quick one: give measured T/C for Clc1ccccc1/C=C/C=C1c2ccccc2-c2ccccc21
79 % of control

Quick one: give measured T/C for Cc1cc(=O)[nH]c(N=Nc2c(O)[nH]c3ccccc23)n1
43 % of control

Quick one: give measured T/C for CNNCc1ccc(C(=O)NC(C)C)cc1
8 % of control

* * *

System: Swiss mice, Sarcoma 180 sc, mean tumor weight T/C
protocol.notes: NCI In Vivo Anticancer Drug Screen. Data for tumor model Sarcoma 180 (subcutaneous) in Swiss mice
experimental.parameters: endpoint: mean tumor weight; dose: 50.0 mg/kg/injection; schedule: Q01DX007 (ip); vehicle: water; higher = larger tumour
Protocol: The antitumor activity of compounds was measured in mice bearing transplantable tumors. Survival or tumor size were measured and the results are expressed as the measurement made in the treated group (T) divided by the measurement made in the vehicle treated control group (C). The tumor model used in this assay is Sarcoma 180 (subcutaneous) in Swiss mice
// reported T/C per item

> print(dat)
                                test.smiles            result
1                                 CNC(=O)NO  100 % of control
2        CN(C)c1ccc(/C=C\c2ccnc3ccccc23)cc1   80 % of control
3            COC1=C(N(C)C)C(=O)c2ncccc2C1=O   92 % of control
4  O=C(Nc1ccc(N=Nc2ccc(S(=O)(=O)O)cc2)cc1)c1ccc(N=Nc2c(O)ccc3cc(S(=O)(=O)O)ccc23)cc1   67 % of control

Quick one: give measured T/C for CC(C)=CCC1=C(O)c2ccccc2C(=O)C1=O
97 % of control

Quick one: give measured T/C for CC1=NCCc2c1cc1c([nH]c3ccccc31)c2C
91 % of control

Quick one: give measured T/C for CN1CCC=C(C(=O)O)C1
75 % of control

Quick one: give measured T/C for Cc1[nH]ccc2c(C)c3nc4ccccc4c3cc12
122 % of control

Quick one: give measured T/C for Cc1cc(NC(=O)c2ccc(N)cc2)ccc1N=Nc1ccc(N=Nc2ccc3c(O)cc(S(=O)(=O)O)cc3c2)c2cc(S(=O)(=O)O)ccc12
62 % of control
